- systemName: T1, human DLL3 (immobilized human DLL3 or h293-hDLL3 cells) (human, UniProt Q9NYJ7 27-492, limits assumed)
- T1 construct: the sentence says 'immobilized human DLL3 or h293-hDLL3 cells'
- T1 sequence: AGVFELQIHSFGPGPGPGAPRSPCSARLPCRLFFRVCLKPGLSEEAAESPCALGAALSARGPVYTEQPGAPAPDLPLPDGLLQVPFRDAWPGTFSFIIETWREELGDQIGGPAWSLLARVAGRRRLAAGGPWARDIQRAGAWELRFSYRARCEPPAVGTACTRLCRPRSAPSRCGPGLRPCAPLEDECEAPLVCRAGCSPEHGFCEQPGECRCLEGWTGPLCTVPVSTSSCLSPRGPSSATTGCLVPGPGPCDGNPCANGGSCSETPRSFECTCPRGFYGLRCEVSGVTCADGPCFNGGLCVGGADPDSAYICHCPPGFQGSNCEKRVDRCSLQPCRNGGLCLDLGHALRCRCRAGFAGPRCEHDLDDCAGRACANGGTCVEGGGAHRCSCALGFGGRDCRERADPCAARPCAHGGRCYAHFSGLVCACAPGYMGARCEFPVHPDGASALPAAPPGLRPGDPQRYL
- testDescription: hybridoma screening on immobilized human DLL3 or on h293-hDLL3 cells
measuredAttribute: binding result

- SC16.21 (antibody, V domains shown, murine mAb; variable regions only) VH: QVQLQQSGPELVKPGASVKISCKASGYAFSSSWMNWVKQRPGKGLEWIGRIYPGDGDTNYNGKFKGKATLTADKSSSTAYMQLSSLTSEDSAVYFCAMGIYNYDGSRYYSMDYWGQGTSVTVSS VL: DIVMTQSPSSLAMSVGQKVTMSCKSSQSLLNSSNQKNYLAWYQQEPGQSPKLLVSFASTRESGVPDRFTGSGSGTDFTLTISGVQAEDLAVYYCQQHYSIPLTFGAGTKLELK: binds
